# assay-system: human full-length MKNK1 (Homo sapiens, UniProt Q9BUB5, T385D)
# Construct: GST (N); purchased Carna Biosciences 02-145; host or cells: insect cells (baculovirus expression system)
# Sequence (Q9BUB5 1-424 isoform Q9BUB5-2 T344D): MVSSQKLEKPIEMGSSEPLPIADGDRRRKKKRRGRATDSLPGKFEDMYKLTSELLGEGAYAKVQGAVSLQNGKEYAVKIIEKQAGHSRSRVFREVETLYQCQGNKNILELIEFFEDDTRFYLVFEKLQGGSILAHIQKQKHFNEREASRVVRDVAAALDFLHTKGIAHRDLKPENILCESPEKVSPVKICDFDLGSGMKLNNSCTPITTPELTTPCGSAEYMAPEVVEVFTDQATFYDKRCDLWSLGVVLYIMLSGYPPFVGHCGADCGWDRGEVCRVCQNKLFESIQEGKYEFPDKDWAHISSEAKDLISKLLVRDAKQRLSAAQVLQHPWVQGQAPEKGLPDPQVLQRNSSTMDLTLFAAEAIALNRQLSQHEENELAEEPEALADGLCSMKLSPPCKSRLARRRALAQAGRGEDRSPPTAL
# measurement-description: MKNK1 kinase high ATP assay (TR-FRET)
# Format: biochemical
# conditions: 2 mM ATP, after preincubation with MKNK1; read-out: MKNK1 IC50 (MKNK1 high ATP)
measurement-name: pIC50
Please note pIC50 is a logarithmic value: minus log10 of concentration in mol/L. Answer with that number alone.

Input line: Query the reported pIC50 for human full-length MKNK1 (Homo sapiens, UniProt Q9BUB5, T385D); item: O=C(C1CCc2c(sc3ncnc(Nc4ccc5[nH]ncc5c4)c23)C1)N1CCN(c2cnccn2)CC1 (racemic) [Example 114]
Output line: 7.90

Input line: What pIC50 appears in the records for this compound with human full-length MKNK1 (Homo sapiens, UniProt Q9BUB5, T385D)? O=C(NCc1cc[nH]n1)C1CCc2c(sc3ncnc(Nc4ccc5[nH]ncc5c4)c23)C1 (racemic) [Example 139]
Output line: 8.16

Input line: Lab note: need pIC50 with human full-length MKNK1 (Homo sapiens, UniProt Q9BUB5, T385D) for entry CN(C)C(=O)C1CCc2c(sc3ncnc(Nc4cc5cn[nH]c5cc4OC(F)(F)F)c23)C1 (racemic) [Example 249] , please look it up.
Output line: 7.82

Input line: Find the measured pIC50: item CCOc1cc2[nH]ncc2cc1Nc1ncnc2sc3c(c12)CCC(C(=O)N(C)CC1CC1)C3 (racemic) [Example 240] , target or system human full-length MKNK1 (Homo sapiens, UniProt Q9BUB5, T385D).
Output line: 8.96

Input line: Which measured pIC50 belongs to CN(C)CCCNC(=O)C1CCc2c(sc3ncnc(Nc4ccc5[nH]ncc5c4)c23)C1 (centres unmarked) [Example 40] , tested on human full-length MKNK1 (Homo sapiens, UniProt Q9BUB5, T385D)?
Output line: 8.15

Input line: What measured pIC50 is associated with CN1CCN(CCNC(=O)C2CCc3c(sc4ncnc(Nc5ccc6[nH]ncc6c5)c34)C2)CC1 (racemic) [Example 144] on human full-length MKNK1 (Homo sapiens, UniProt Q9BUB5, T385D)?
Output line: 7.66

Input line: # returns recorded pIC50 (system: human full-length MKNK1 (Homo sapiens, UniProt Q9BUB5, T385D)) for CCOc1cc2[nH]ncc2cc1Nc1ncnc2sc3c(c12)CCC(C(=O)N1CCN(CC2CC2)CC1)C3 (racemic) [Example 247]
Output line: 9.52

Input line: human full-length MKNK1 (Homo sapiens, UniProt Q9BUB5, T385D) / pIC50 / CCOc1cc2[nH]ncc2cc1Nc1ncnc2sc3c(c12)CCC(C(=O)N1CC=CC1)C3 (racemic) [Example 255] : value?
Output line: 9.52

Input line: Value wanted: pIC50 (human full-length MKNK1 (Homo sapiens, UniProt Q9BUB5, T385D)) of entry CCOc1cc2[nH]ncc2cc1Nc1ncnc2sc3c(c12)CCC(C(=O)N(C)CCN)C3 (racemic) [Example 271, bis(trifluoroacetate)]
Output line: 9.40

Input line: // fetch human full-length MKNK1 (Homo sapiens, UniProt Q9BUB5, T385D) pIC50 for O=C(C1CCc2c(sc3ncnc(Nc4ccc5[nH]ncc5c4)c23)C1)N1CCCCC1 (racemic) [Example 82]
Output line: 7.84

Input line: Kindly state the measured pIC50 obtained for CN(Cc1cccc(F)c1)C(=O)C1CCc2c(sc3ncnc(Nc4ccc5[nH]ncc5c4)c23)C1 (racemic) [Example 145] with human full-length MKNK1 (Homo sapiens, UniProt Q9BUB5, T385D).
Output line: 8.31

Input line: Give the reported pIC50 for O=C(NCc1cccnc1)C1CCc2c(sc3ncnc(Nc4ccc5[nH]ncc5c4)c23)C1 (centres unmarked) [Example 32] (system: human full-length MKNK1 (Homo sapiens, UniProt Q9BUB5, T385D)).
Output line: 8.30

Input line: Find the measured pIC50: item CCN(Cc1ccncc1)C(=O)C1CCc2c(sc3ncnc(Nc4ccc5[nH]ncc5c4)c23)C1 (racemic) [Example 109] , target or system human full-length MKNK1 (Homo sapiens, UniProt Q9BUB5, T385D).
Output line: 8.10

Input line: Which measured pIC50 belongs to O=C(C1CCc2c(sc3ncnc(Nc4ccc5[nH]ncc5c4)c23)C1)N1CCN(c2ccccc2)CC1 (racemic) [Example 106] , tested on human full-length MKNK1 (Homo sapiens, UniProt Q9BUB5, T385D)?
Output line: 7.84

Input line: Lookup: pIC50 / human full-length MKNK1 (Homo sapiens, UniProt Q9BUB5, T385D) / CC(C)Oc1cc2[nH]ncc2cc1Nc1ncnc2sc3c(c12)CCC(C(=O)N1CCCC1)C3 (racemic) [Example 221]
Output line: 9.15

Input line: Which measured pIC50 belongs to O=C(NC1CC1)C1CCc2c(sc3ncnc(Nc4ccc5[nH]ncc5c4)c23)C1 (racemic) [Example 80] , tested on human full-length MKNK1 (Homo sapiens, UniProt Q9BUB5, T385D)?
Output line: 8.04

Input line: Query the reported pIC50 for human full-length MKNK1 (Homo sapiens, UniProt Q9BUB5, T385D); item: O=C(NCCc1ccncc1)C1CCc2c(sc3ncnc(Nc4ccc5[nH]ncc5c4)c23)C1 (centres unmarked) [Example 36]
Output line: 8.22

Input line: Please tell me: pIC50 of O=C(NCC(F)(F)F)C1CCc2c(sc3ncnc(Nc4ccc5[nH]ncc5c4)c23)C1 (centres unmarked) [Example 33] , system human full-length MKNK1 (Homo sapiens, UniProt Q9BUB5, T385D)?
Output line: 8.30

Input line: Please provide the recorded pIC50 for CC1CCCN(C(=O)C2CCc3c(sc4ncnc(Nc5ccc6[nH]ncc6c5)c34)C2)C1 (racemic) [Example 104] , tested on human full-length MKNK1 (Homo sapiens, UniProt Q9BUB5, T385D).
Output line: 8.13

Input line: Checklist item: pIC50 tested on human full-length MKNK1 (Homo sapiens, UniProt Q9BUB5, T385D), entry O=C(C1CCc2c(sc3ncnc(Nc4ccc5[nH]ncc5c4)c23)C1)N1CCC(c2ccccc2)CC1 (racemic) [Example 127] , value?
Output line: 7.97

Input line: Observed pIC50 on human full-length MKNK1 (Homo sapiens, UniProt Q9BUB5, T385D) for CCOc1cc2[nH]ncc2cc1Nc1ncnc2sc3c(c12)CCC(C(=O)N(C)CC(F)F)C3 (racemic) [Example 226] , please.
Output line: 9.15

Input line: Form field - read-out: pIC50; system: human full-length MKNK1 (Homo sapiens, UniProt Q9BUB5, T385D); submitted item: COc1cc2[nH]ncc2cc1Nc1ncnc2sc3c(c12)CCC(C(=O)O)C3 (centres unmarked) [Example 57]
Output line: 8.15

Input line: Give human full-length MKNK1 (Homo sapiens, UniProt Q9BUB5, T385D) pIC50 for CCN(C)C(=O)C1CCc2c(sc3ncnc(Nc4cc5cn[nH]c5cc4OC)c23)C1 (racemic) [Example 179]
Output line: 9.15

Input line: Kindly state the measured pIC50 obtained for O=C(CN1CCN(C(=O)C2CCc3c(sc4ncnc(Nc5ccc6[nH]ncc6c5)c34)C2)CC1)N1CCCC1 (racemic) [Example 201] with human full-length MKNK1 (Homo sapiens, UniProt Q9BUB5, T385D).
Output line: 7.74

Input line: Give human full-length MKNK1 (Homo sapiens, UniProt Q9BUB5, T385D) pIC50 for COc1ccc(CCNC(=O)C2CCc3c(sc4ncnc(Nc5ccc6[nH]ncc6c5)c34)C2)cc1 (centres unmarked) [Example 25]
Output line: 8.52

Input line: State its pIC50 on human full-length MKNK1 (Homo sapiens, UniProt Q9BUB5, T385D): CC(C)Oc1cc2[nH]ncc2cc1Nc1ncnc2sc3c(c12)CCC(C(=O)N1CC(C#N)C1)C3 (racemic) [Example 208]
Output line: 9.70

Input line: Provide value of pIC50 for this record tested with human full-length MKNK1 (Homo sapiens, UniProt Q9BUB5, T385D): COc1cc2[nH]ncc2cc1Nc1ncnc2sc3c(c12)CCC(C(=O)N1CCC(C)(C)C1)C3 (racemic) [Example 180]
Output line: 9.10

Input line: Hi! What's the reported pIC50 for CC1CCN(C(=O)C2CCc3c(sc4ncnc(Nc5ccc6[nH]ncc6c5)c34)C2)CC1 (racemic) [Example 105] on human full-length MKNK1 (Homo sapiens, UniProt Q9BUB5, T385D)?
Output line: 7.77

Input line: Hi! What's the reported pIC50 for CN(Cc1ccsc1)C(=O)C1CCc2c(sc3ncnc(Nc4ccc5[nH]ncc5c4)c23)C1 (racemic) [Example 162] on human full-length MKNK1 (Homo sapiens, UniProt Q9BUB5, T385D)?
Output line: 8.28

---

# assay-system: human full-length MKNK1 (Homo sapiens, UniProt Q9BUB5, T385D)
# Construct: GST (N); purchased Carna Biosciences 02-145; host or cells: insect cells (baculovirus expression system)
# measurement-description: MKNK1 kinase high ATP assay (TR-FRET)
# Format: biochemical
# conditions: 2 mM ATP, after preincubation with MKNK1; read-out: MKNK1 IC50 (MKNK1 high ATP)
I'd appreciate it if you could supply IC50 values for the items below.
Kindly write the number and append the unit.

Input line: Report IC50 for COc1ccc(NC(=O)C2CCc3c(sc4ncnc(Nc5ccc6[nH]ncc6c5)c34)C2)cc1 (stereo not drawn) tested on human full-length MKNK1 (Homo sapiens, UniProt Q9BUB5, T385D).
Output line: 7 nM

Input line: IC50 of CC(C)Oc1cc2[nH]ncc2cc1Nc1ncnc2sc3c(c12)CCC(C(=O)N1CCCCC1)C3 (racemic) on human full-length MKNK1 (Homo sapiens, UniProt Q9BUB5, T385D)?
Output line: 1.5 nM

Input line: Provide value of IC50 for this record tested with human full-length MKNK1 (Homo sapiens, UniProt Q9BUB5, T385D): COc1cc2[nH]ncc2cc1Nc1ncnc2sc3c(c12)CCC(C(=O)N1CC(OC(=O)N(C)C)C1)C3 (racemic)
Output line: 19.8 nM

Input line: Provide the documented IC50 with human full-length MKNK1 (Homo sapiens, UniProt Q9BUB5, T385D) as the system for N#Cc1cccc(NC(=O)C2CCc3c(sc4ncnc(Nc5ccc6[nH]ncc6c5)c34)C2)c1 (racemic)
Output line: 10.5 nM

Input line: # returns recorded IC50 (system: human full-length MKNK1 (Homo sapiens, UniProt Q9BUB5, T385D)) for CC(C)Oc1cc2[nH]ncc2cc1Nc1ncnc2sc3c(c12)CCC(C(=O)N(C)C(C)C)C3 (racemic)
Output line: 0.5 nM

Input line: Recorded IC50 for COc1cc2[nH]ncc2cc1Nc1ncnc2sc3c(c12)CCC(C(=O)N(C)CC(F)F)C3 (racemic) with human full-length MKNK1 (Homo sapiens, UniProt Q9BUB5, T385D), please?
Output line: 0.8 nM

Input line: Enter reported IC50 observed with human full-length MKNK1 (Homo sapiens, UniProt Q9BUB5, T385D) for O=C(NCc1cccc(F)c1)C1CCc2c(sc3ncnc(Nc4ccc5[nH]ncc5c4)c23)C1 (stereo not drawn)
Output line: 2 nM

Input line: What is its IC50 for human full-length MKNK1 (Homo sapiens, UniProt Q9BUB5, T385D)? Entry: COCCN(CCO)C(=O)C1CCc2c(sc3ncnc(Nc4cc5cn[nH]c5cc4OC)c23)C1 (racemic)
Output line: 0.5 nM

Input line: Find IC50 (human full-length MKNK1 (Homo sapiens, UniProt Q9BUB5, T385D)) for the entry CCOC(=O)C1CCc2c(sc3ncnc(Nc4cc5cn[nH]c5cc4OC)c23)C1 (stereo not drawn)
Output line: 2 nM

Input line: API: value(readout= IC50, system= human full-length MKNK1 (Homo sapiens, UniProt Q9BUB5, T385D), query= O=C(C1CCc2c(sc3ncnc(Nc4ccc5[nH]ncc5c4)c23)C1)N1CC=CC1 (racemic) )
Output line: 12.4 nM

Input line: What IC50 appears in the records for this compound with human full-length MKNK1 (Homo sapiens, UniProt Q9BUB5, T385D)? COCCCNC(=O)C1CCc2c(sc3ncnc(Nc4ccc5[nH]ncc5c4)c23)C1 (stereo not drawn)
Output line: 12 nM

Input line: Query the reported IC50 for human full-length MKNK1 (Homo sapiens, UniProt Q9BUB5, T385D); item: Cc1ccccc1N1CCN(C(=O)C2CCc3c(sc4ncnc(Nc5ccc6[nH]ncc6c5)c34)C2)CC1 (racemic)
Output line: 132 nM

Input line: Lab note: need IC50 for CN(CCO)C(=O)C1CCc2c(sc3ncnc(Nc4ccc5[nH]ncc5c4)c23)C1 (stereo not drawn) on human full-length MKNK1 (Homo sapiens, UniProt Q9BUB5, T385D), anyone have it?
Output line: 8 nM

Input line: Observed IC50 on human full-length MKNK1 (Homo sapiens, UniProt Q9BUB5, T385D) for O=C(C1CCc2c(sc3ncnc(Nc4ccc5[nH]ncc5c4)c23)C1)N1CCCC(O)C1 (racemic) , please.
Output line: 12 nM

Input line: Form field - read-out: IC50; system: human full-length MKNK1 (Homo sapiens, UniProt Q9BUB5, T385D); submitted item: CCOC(=O)N1CCN(C(=O)C2CCc3c(sc4ncnc(Nc5ccc6[nH]ncc6c5)c34)C2)CC1 (racemic)
Output line: 16.4 nM
